System: SW-620 colon
assay: NCI tumour cell line growth inhibition, 48 h
attribute measured: TGI

Guide cases for TGI, answers given:
> print(dat)
                                   compound    result
1  COc1cccc2c1C(=O)c1c(O)c3c(c(O)c1C2=O)C[C@@](O)(C(C)=O)CC3S(=O)(=O)O (stereo partly specified)  > 100 µM
2            O=c1cc(-c2ccccc2)[nH]c2ncccc12  > 100 µM
3  CC(=O)OCC12CN(C#N)C3C4COC(CC41)C1(C(=O)N(C)c4ccccc41)C32 (stereo unspecified)   59.6 µM
4  CN(C)C(=O)Oc1c(Br)cc(Br)cc1C(=O)OCc1ccccc1  > 100 µM
5    CCN1c2ccccc2NC(=S)c2c1n[nH]c2-c1ccccc1   84.7 µM

In the following, a different compound is considered.
stdin: Find TGI for Clc1ccc(CCNC2(c3cc4ccccc4s3)CCCCC2)cc1Cl on SW-620 colon and write it down.
stdout: > 100 µM

Values compiled from PubChem BioAssay (NCI).
